B1: EHEE_rd2_1257 (parent)
chain: EEERTFTNEEEARKAKKEAEKRGLRVTVTKDGTTWRVRIG

# Variants of: B1
# Assay Info: folding stability dG (cDNA display proteolysis); higher = more stable
# Stated Conditions: PBS, room temperature
# folding stability dG annotations
I only need the number, in kcal/mol, no unit after it.

>>> print(df.to_string())
   mutant_label  unit_of_measurement  measured_result
0          A19D             kcal/mol           -0.295

What value of folding stability dG has been recorded for this entry: E2Q
1.99

What value of folding stability dG has been recorded for this entry: R4V
1.96

What value of folding stability dG has been recorded for this entry: T7L
1.79

What value of folding stability dG has been recorded for this entry: E2A
1.75

What value of folding stability dG has been recorded for this entry: E1M
2.38
